# system.name: murine IL-21R expressed on cells (murine, UniProt Q9JHX3 20-529)
# Sequence (Q9JHX3 20-529 limits assumed): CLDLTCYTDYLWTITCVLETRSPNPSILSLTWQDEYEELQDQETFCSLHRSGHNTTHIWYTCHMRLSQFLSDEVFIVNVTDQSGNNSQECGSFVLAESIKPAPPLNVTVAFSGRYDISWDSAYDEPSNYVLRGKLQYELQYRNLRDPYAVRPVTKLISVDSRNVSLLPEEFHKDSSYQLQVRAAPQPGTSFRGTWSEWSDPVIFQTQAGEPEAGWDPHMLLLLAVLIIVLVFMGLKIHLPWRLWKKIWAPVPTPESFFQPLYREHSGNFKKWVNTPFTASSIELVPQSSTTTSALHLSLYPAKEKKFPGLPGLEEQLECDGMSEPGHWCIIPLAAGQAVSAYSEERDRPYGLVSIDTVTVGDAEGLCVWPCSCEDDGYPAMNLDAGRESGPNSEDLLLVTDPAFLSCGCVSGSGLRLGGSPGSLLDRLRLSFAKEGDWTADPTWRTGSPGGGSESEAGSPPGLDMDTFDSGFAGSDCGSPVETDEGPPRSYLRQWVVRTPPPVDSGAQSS
# assay.protocol: cell-based or functional assay
parameter.measured: Murine IL-21R-BaF3 Proliferation IC50 (nM)
Lab book: enter the figure in nM, no units written.

Please give measured Murine IL-21R-BaF3 Proliferation IC50 of the following entry: AbN (antibody, IgG1, V domains shown, As for AbA: IgG1/lambda, CDR3 graft, residue limits derived; also called VH6/VL24) VH: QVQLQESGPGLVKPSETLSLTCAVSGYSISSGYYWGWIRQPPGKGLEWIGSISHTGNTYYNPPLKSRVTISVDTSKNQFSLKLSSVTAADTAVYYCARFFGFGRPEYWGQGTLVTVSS VL: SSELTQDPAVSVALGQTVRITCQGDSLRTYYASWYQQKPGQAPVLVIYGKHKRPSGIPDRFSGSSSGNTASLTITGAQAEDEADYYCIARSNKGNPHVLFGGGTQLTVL
0.435

Please give measured Murine IL-21R-BaF3 Proliferation IC50 of the following entry: AbU (antibody, human IgG1, V domains shown, CDR3 graft, residue limits derived as for m29; also called VHP/VL25; VHPTM/VL25) VH: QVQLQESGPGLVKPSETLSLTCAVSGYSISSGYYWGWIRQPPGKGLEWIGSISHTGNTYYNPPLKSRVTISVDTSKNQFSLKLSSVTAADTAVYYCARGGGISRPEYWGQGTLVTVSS VL: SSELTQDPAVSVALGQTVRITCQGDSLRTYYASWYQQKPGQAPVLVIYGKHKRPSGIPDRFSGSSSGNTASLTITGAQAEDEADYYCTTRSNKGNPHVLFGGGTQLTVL
0.184
